target: T1, cynomolgus monkey GPRC5D (cynomolgus monkey); assay: FACS, HEK293T-cynoGPRC5D cells
T1 construct: whole, on cells; HEK293T-cynoGPRC5D cells; also called cynoGPRC5D
MEASUREMENT KIND: MFI
Field format: numeric only.

BINDER	MFI
83A9B8 (antibody, V domains shown, Mouse monoclonal antibody from hybridoma subclone) VH: EVQLQQSGPELVKPGASVKMSCKASGYTFSNYVIHWVKQKPGQGLEWIGYFNPYNDGSKYNEKFKGKATLTSDKSSSTAYMELSSLTSEDSAVYYCARGGVRRYFDVWGAGTTVTVSS VL: DIQMTQSPSSLSASLGERVSLTCRASQDIGDNLNWLQQEPDGTIKRLIYATFSLDSGVPKRFSGSRSGSVYSLTISRLESEDFVDYFCLHYASFPYTFGGGTKLEIK	278

Request: # return recorded MFI for entry ATG596 (antibody, V domains shown, Human IgG1; also called benchmark antibody ATG596; positive human IgG1 control antibody) VH: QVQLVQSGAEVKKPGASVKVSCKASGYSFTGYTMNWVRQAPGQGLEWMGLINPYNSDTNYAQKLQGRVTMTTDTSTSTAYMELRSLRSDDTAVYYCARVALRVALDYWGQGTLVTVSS VL: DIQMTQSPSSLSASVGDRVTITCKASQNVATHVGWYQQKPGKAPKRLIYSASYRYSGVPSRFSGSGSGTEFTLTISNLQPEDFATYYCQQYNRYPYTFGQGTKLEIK
Result: 6580

Request: # return recorded MFI for entry 116F1G6 (antibody, V domains shown, Mouse monoclonal antibody from hybridoma subclone) VH: EVQLQHSGPELVKPGASVKMSCKASGYTFTTYVMHWVKQKPGQGLEWIGYINPYNDGTKYNEKFKGKATLTSDKSSSTAYMELSSLTSEDSAVYYCARGGVRRYFDVWGAGTTVTVSS VL: DIQMTQSPSSLSASLGERVSLTCRASQDIGSNLNWLQQEPNGTIKRLIYATFTLDSGVPKRFSGSRSGSDYSLTISSLESEDFVDYYCLQYASFPYTFGGGTKLEIK
Result: 82.6

Request: # return recorded MFI for entry 87A3G8 (antibody, V domains shown, Mouse monoclonal antibody from hybridoma subclone) VH: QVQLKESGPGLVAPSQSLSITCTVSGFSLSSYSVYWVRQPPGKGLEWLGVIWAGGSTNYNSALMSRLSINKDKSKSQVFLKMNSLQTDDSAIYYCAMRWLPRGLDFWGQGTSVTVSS VL: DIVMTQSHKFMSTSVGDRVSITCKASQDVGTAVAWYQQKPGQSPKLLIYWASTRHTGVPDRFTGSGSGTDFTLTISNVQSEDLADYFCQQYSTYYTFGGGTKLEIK
Result: 3960
